# key: entry, value: Activity
Target: UniProt Q02790
Assay: Neurotrophic activity in chick dorsal root ganglion at 1 pM in presence of NGF after 48 hrs relative to control
Format: functional, tissue-based
Conditions: Gallus gallus, target entry is the homologue from another species
observation type: Activity (%)

1. CCC(C)(C)C(=O)C(=O)N[C@H](C(=O)OCCc1ccccc1C(F)(F)F)C(C)C : 123
2. CC(C)[C@H](NC(=O)C(=O)C(C)(C)C)C(=O)OCCCC1CCCCC1 : 136
3. CCC(C)(C)C(=O)C(=O)N[C@H](C(=O)OCCCc1cccnc1)C(C)C : 100
4. CC(C)C[C@H](NC(=O)C(=O)C(C)(C)C)C(=O)OCCCc1cccnc1 : 129
5. CC(C)C[C@H](NC(=O)C(=O)C(C)(C)C)C(=O)OCCCC1CCCCC1 : 123

###

Molecular target: Peptidyl-prolyl cis-trans isomerase FKBP4 (Homo sapiens) (UniProt Q02790)
Sequence (whole entry): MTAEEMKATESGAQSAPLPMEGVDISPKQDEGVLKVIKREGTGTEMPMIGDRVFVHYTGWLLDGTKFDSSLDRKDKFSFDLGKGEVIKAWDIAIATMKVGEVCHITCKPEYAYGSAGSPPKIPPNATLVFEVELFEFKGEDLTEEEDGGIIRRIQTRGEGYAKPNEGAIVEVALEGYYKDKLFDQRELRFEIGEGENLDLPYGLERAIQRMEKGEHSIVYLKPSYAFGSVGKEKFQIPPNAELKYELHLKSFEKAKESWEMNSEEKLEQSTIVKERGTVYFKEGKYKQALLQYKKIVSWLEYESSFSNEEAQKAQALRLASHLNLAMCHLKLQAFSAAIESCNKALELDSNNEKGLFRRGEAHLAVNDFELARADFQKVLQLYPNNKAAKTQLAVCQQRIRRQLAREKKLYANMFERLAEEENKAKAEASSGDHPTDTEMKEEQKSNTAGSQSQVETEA
Assay: Neurotrophic activity in chick dorsal root ganglion at 1 pM in presence of NGF after 48 hrs relative to control
Type: functional, tissue-based
Conditions: Gallus gallus, target entry is the homologue from another species
The label depends only on Activity: MET if it is at least 80%, NOT MET if it is smaller.

1. CC(C)[C@H](NC(=O)C(=O)C(C)(C)C)C(=O)OCCCc1ccccc1 : NOT MET
2. CCC(C)(C)C(=O)C(=O)N[C@H](C(=O)OCCCc1ccccc1)C(C)C : NOT MET
3. CC(C)[C@H](NC(=O)C(=O)C(C)(C)C)C(=O)OCCCOc1ccccc1 : MET
4. CC(C)[C@H](NC(=O)C(=O)C(C)(C)C)C(=O)OCCCc1cccnc1 : MET
5. CC(C)C[C@H](NC(=O)C(=O)C(C)(C)C)C(=O)OCCCc1ccccc1 : NOT MET
6. CC(C)C[C@H](NC(=O)C(=O)C(C)(C)C)C(=O)OCCCOc1ccccc1 : MET
